Tested on: Human parechovirus strain 1
MEASUREMENT NOTES: CPE inhibition in mammalian cell culture, HPeV-1
Assay type: cell-based
COND: Parechovirus A; Conc. 10 µM; read-out: antiviral effect, HPeV-1
Classification field: enter Satisfied for inhibition at 10 µM values not below 7%, Not satisfied for values below it.

| COMPOUND | CATEGORY LABEL |
| --- | --- |
| COc1ccc(-c2c(C)nn3c(NCC(C)c4ccccc4)cc(C)nc23)cc1OC (centres unmarked) | Not satisfied |
| COc1ccc(-c2c(C)nn3c(NCc4ccc(F)cc4)cc(C)nc23)cc1OC | Satisfied |
| COc1ccc(-c2c(C)nn3c(NCc4ccc(C)cc4)cc(C)nc23)cc1OC | Satisfied |
| Cc1ccc(-c2c(C)nn3c(NCc4ccccn4)cc(C)nc23)cc1 | Satisfied |

====

inhibition at 10000 µM overview
System: polio virus strain 1
MEASUREMENT NOTES: microbe, parasite or virus in culture
Type: cell-based
COND: read-out: antiviral effect, Polio 1
MEASURED ATTRIBUTE: inhibition at 10000 µM (%)

| MOLECULAR STRING | OBSERVED MEASUREMENT |
| --- | --- |
| COc1ccc(-c2c(C)nn3c(NCc4ccc(F)cc4)cc(C)nc23)cc1OC | 91 |
| CC(C)c1cc(NCc2ccccc2)n2ncc(-c3ccccc3)c2n1 | 17 |
| Cc1ccc(-c2c(C)nn3c(NCc4ccccn4)cc(C)nc23)cc1 | 58 |
| COc1ccc(-c2c(C)nn3c(NCc4ccc(C)cc4)cc(C)nc23)cc1OC | 19 |

====

System: encephalomyocarditis virus
MEASUREMENT NOTES: CPE inhibition in mammalian cell culture, EMCV
Assay type: cell-based
Design: dose or concentration left out as unconfirmed
COND: Cardiovirus A; Conc.; read-out: antiviral effect, EMCV
MEASURED ATTRIBUTE: inhibition

| COMPOUND | OBSERVED MEASUREMENT |
| --- | --- |
| COc1ccc(-c2c(C)nn3c(NCc4ccc(C)cc4)cc(C)nc23)cc1OC [Ex. 6] | 0% |
| CC(C)c1cc(NCc2ccccc2)n2ncc(-c3ccccc3)c2n1 [Ex. 4] | 81% |
| COc1ccc(-c2c(C)nn3c(NCC(C)c4ccccc4)cc(C)nc23)cc1OC (centres unmarked) [Ex. 10] | 25% |
| Cc1ccc(-c2c(C)nn3c(NCc4ccccn4)cc(C)nc23)cc1 [Ex. 33] | 60% |
| COc1ccc(-c2c(C)nn3c(NCc4ccc(F)cc4)cc(C)nc23)cc1OC [Ex. 9] | 14% |

====

Tested on: Enterovirus strain 6
MEASUREMENT NOTES: microbe, parasite or virus in culture
Assay type: cell-based
Design: dose or concentration left out as unconfirmed
COND: Conc., read-out: antiviral effect, EV6
Recorded inhibition by entry
MEASURED ATTRIBUTE: inhibition (%)

| MOLECULE | MEASURED ATTRIBUTE | OBSERVED MEASUREMENT |
| --- | --- | --- |
| COc1ccc(-c2c(C)nn3c(NCCc4ccc(Cl)cc4)cc(C)nc23)cc1OC [Ex. 5] | inhibition | 80 |
| COc1ccc(CNc2cc(C)nc3c(-c4ccc(OC)c(OC)c4)c(C)nn23)cc1 [Ex. 2] | inhibition | 83 |
| COc1ccc(-c2c(C)nn3c(NCc4ccc5c(c4)OCO5)cc(C)nc23)cc1OC [Ex. 8] | inhibition | 88 |
| COc1ccc(-c2c(C)nn3c(NCc4ccc(Cl)cc4)cc(C)nc23)cc1OC [Ex. 1] | inhibition | 90 |

====

Measured inhibition at 5000 µM, listed per entry.
Tested on: coxsackie B virus strain 4
MEASUREMENT NOTES: CPE inhibition in mammalian cell culture, Cox-B4
Format: cell-based
COND: read-out: antiviral effect, B4

| MOLECULAR STRING | inhibition at 5000 µM |
| --- | --- |
| COc1ccc(CNc2cc(C)nc3c(-c4ccc(OC)c(OC)c4)c(C)nn23)cc1 | 86% |
| COc1ccc(-c2c(C)nn3c(NCc4ccc(Cl)cc4)cc(C)nc23)cc1OC | 86% |
| COc1ccc(-c2c(C)nn3c(NCc4ccc5c(c4)OCO5)cc(C)nc23)cc1OC | 89% |
| COc1ccc(-c2c(C)nn3c(NCCc4ccc(Cl)cc4)cc(C)nc23)cc1OC | 97% |
